test system: ProfilerPro Kinase Selectivity Assay Kit kinases; format: biochemical; details: PKC beta2; 1 μM compound concentration
Assignment: determine reported POC (Percent of control) PKC beta2 for the given molecules.
Respond with the bare value in POC.

Task item: Find the measured POC (Percent of control) PKC beta2 of Cc1nc(-c2cccnc2Nc2cccc3[nH]ncc23)c2nc[nH]c2n1 [Example 57] and report it.
Reply: 97

Task item: Find the measured POC (Percent of control) PKC beta2 of COc1ccc(Nc2ncc(Cc3ccc(S(C)(=O)=O)cc3)cc2-c2nc(C)nc3[nH]cnc23)cn1 [Example 103] and report it.
Reply: 100

Task item: Find the measured POC (Percent of control) PKC beta2 of Cc1cnc(Nc2cccc3[nH]ncc23)c(-c2nc(C)nc(N)n2)c1 [Example 47] and report it.
Reply: 100
